B1: CPEB3 Ribozyme (parent)
chain: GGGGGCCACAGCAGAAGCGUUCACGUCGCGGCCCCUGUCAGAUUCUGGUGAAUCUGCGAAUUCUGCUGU

Variants of: B1
assay procedure: self-cleavage, relative activity (ratio to wild type); higher = more cleavage; co-transcriptional
A collection of variants and their measured self-cleavage
Give only the figure.

[[record]]
query_sequence = "GGGGGCCACAGCAGAAGCUUUCACGUCGCGGCCCCUGUCAGAUUCUGGUGAAUCUGCGCAUUCUGCUGU [G19U A59C]"
measured_quantity = "self-cleavage"
result = 0.131


# context switch: different variant, same self-cleavage
Form field self-cleavage, entry GGGGGCCACAGCAGAAGCGUUCAAGUCGCGGCCCUUGUCAGAUUCUGGUGAAUCUGCGAAUUCUGCUGU [C24A C35U] : 0.476
